biological target: Fuc(a1-2)[Gal(a1-3)]Gal(b1-4)GlcNAc(b1-6)GalNAc; experiment: glycan array binding signal (z-score within array); higher = stronger binding; settings: glycan notation: IUPAC condensed, linker removed
This is one part of a sample in which the strongest signals are shown more often than they occur.
Documented glycan array binding signal (z-score) across a set of binders

binder	glycan array binding signal (z-score)
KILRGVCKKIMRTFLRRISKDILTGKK [NK2 (Sus scrofa)]	0.282
Gal 8 (Mus musculus), Q9JL15 (protein) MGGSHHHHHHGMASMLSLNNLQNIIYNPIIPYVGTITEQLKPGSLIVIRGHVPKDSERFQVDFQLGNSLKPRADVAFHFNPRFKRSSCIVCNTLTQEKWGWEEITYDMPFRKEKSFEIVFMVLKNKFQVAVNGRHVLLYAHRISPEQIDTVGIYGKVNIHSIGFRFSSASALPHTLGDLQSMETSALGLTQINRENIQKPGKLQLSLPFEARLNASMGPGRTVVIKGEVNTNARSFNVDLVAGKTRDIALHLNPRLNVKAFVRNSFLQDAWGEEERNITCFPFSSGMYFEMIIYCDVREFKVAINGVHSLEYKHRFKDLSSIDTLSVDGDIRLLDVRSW	-0.535
